test system: HCV 2a JFH-1 Rluc cells (dicistronic genotype 2a JFH-1 replicon, RLuc reporter); experiment: microbe, parasite or virus in culture; format: cell-based; settings: Hepatitis C virus, genotype 2a JFH-1 RLuc replicon; read-out: 2a JFH
pEC50: −log10 of the molar value.
Field: pEC50. Provide a value for each of the compounds that follow.

Please give the measured pEC50 for this compound: COC(=O)N[C@H](C(=O)N1CCC[C@H]1c1ncc(-c2ccc3c(c2)COc2cc4c(cc2-3)CCc2nc([C@@H]3CCCN3C(=O)[C@H](NC(=O)C3CC3)c3ccccc3)[nH]c2-4)[nH]1)C(C)C [Example 503]
9.00 to 12.00

I would be grateful if you could share the reported pEC50 for COC[C@H]1C[C@@H](c2nc3ccc4cc5c(cc4c3[nH]2)OCc2cc(-c3cnc([C@@H]4C[C@H](C)CN4C(=O)[C@H](NC(=O)OC)c4ccccc4)[nH]3)ccc2-5)N(C(=O)[C@@H](NC(=O)OC)C(C)C)C1 [Example 572] .
9.00 to 12.00
